system: photosynthetic electron transport (PET) in spinach chloroplasts; test: Inhibition of photosynthetic electron transport (PET) in spinach chloroplasts; format: biochemical, Spinacia oleracea L.; conditions: DCPIP photoreduction
Property Measured: IC50

Some entries whose results are on file:
[[record]]
compound = "O=C(Nc1cccc(C(F)(F)F)c1)c1c(O)ccc2ccccc12 [Compound 7b]"
result = "45.6 µM"

[[record]]
compound = "O=C(Nc1ccc([N+](=O)[O-])cc1)c1c(O)ccc2ccccc12 [Compound 8c]"
result = "37.5 µM"

[[record]]
compound = "O=C(Nc1ccc(Cl)cc1)c1c(O)ccc2ccccc12 [Compound 5c]"
result = "59.2 µM"

[[record]]
compound = "COc1ccccc1NC(=O)c1c(O)ccc2ccccc12 [Compound 2a]"
result = "477 µM"

[[record]]
compound = "O=C(Nc1ccccc1F)c1c(O)ccc2ccccc12 [Compound 4a]"
result = "243 µM"


Q: Report IC50 for Cc1ccc(NC(=O)c2c(O)ccc3ccccc23)cc1 [Compound 3c]
A: 874 µM

---

Here we list compounds with their recorded MIC when tested on Mycobacterium marinum CAMP 5644.
Give just the numeric value; µM need not be written.

Q: State the measured MIC (Mycobacterium marinum CAMP 5644) of O=C(Nc1ccccc1F)c1c(O)ccc2ccccc12 [Compound 4a]
A: 228

Q: State the measured MIC (Mycobacterium marinum CAMP 5644) of COc1ccc(NC(=O)c2c(O)ccc3ccccc23)cc1 [Compound 2c]
A: 109

Q: State the measured MIC (Mycobacterium marinum CAMP 5644) of O=C(Nc1ccccc1[N+](=O)[O-])c1c(O)ccc2ccccc12 [Compound 8a]
A: 104

Q: State the measured MIC (Mycobacterium marinum CAMP 5644) of Cc1ccc(NC(=O)c2c(O)ccc3ccccc23)cc1 [Compound 3c]
A: 115

Q: State the measured MIC (Mycobacterium marinum CAMP 5644) of COc1cccc(NC(=O)c2c(O)ccc3ccccc23)c1 [Compound 2b]
A: 218

---

System: photosynthetic electron transport (PET) in spinach chloroplasts
Assay: Inhibition of photosynthetic electron transport (PET) in spinach chloroplasts
Assay type: biochemical, Spinacia oleracea L.
Details: DCPIP photoreduction
Protocol: Chloroplasts were prepared from spinach (Spinacia oleracea L.) according to Masarovicova and Kralova. The inhibition of photosynthetic electron transport (PET) in spinach chloroplasts was determined spectrophotometrically (Genesys 6, Thermo Electron Scientific Instruments, Madison, WI, USA), using an artificial electron acceptor 2,6-dichlorophenol-indophenol (DCPIP) according to Kralova et al., and the rate of photosynthetic electron transport was monitored as a photoreduction of DCPIP. […]
So basically, if IC50 comes in under 200 µM it's Criterion met, and if it's 200 µM or more it's Criterion not met.

For orientation, consider the following solved cases.
[[record]]
chem_smiles = "O=C(Nc1ccc(C(F)(F)F)cc1)c1c(O)ccc2ccccc12"
label_value = "Criterion met"

[[record]]
chem_smiles = "O=C(Nc1ccc(F)cc1)c1c(O)ccc2ccccc12"
label_value = "Criterion not met"

[[record]]
chem_smiles = "O=C(Nc1ccc(Br)cc1)c1c(O)ccc2ccccc12"
label_value = "Criterion met"

[[record]]
chem_smiles = "Cc1cccc(NC(=O)c2c(O)ccc3ccccc23)c1"
label_value = "Criterion not met"

[[record]]
chem_smiles = "O=C(Nc1ccccc1Br)c1c(O)ccc2ccccc12"
label_value = "Criterion met"


Q: Quick check: IC50 of "Cc1ccccc1NC(=O)c1c(O)ccc2ccccc12" under 200 µM?
A: Criterion not met

Q: Quick check: IC50 of "O=C(Nc1ccccc1C(F)(F)F)c1c(O)ccc2ccccc12" under 200 µM?
A: Criterion met

Q: Quick check: IC50 of "O=C(Nc1ccccc1)c1c(O)ccc2ccccc12" under 200 µM?
A: Criterion met

Q: Quick check: IC50 of "O=C(Nc1cccc(Br)c1)c1c(O)ccc2ccccc12" under 200 µM?
A: Criterion met

Q: Quick check: IC50 of "O=C(Nc1ccccc1[N+](=O)[O-])c1c(O)ccc2ccccc12" under 200 µM?
A: Criterion met
